Numbers sourced from ChEMBL document CHEMBL1137015.

Experiment: Inhibition of human intestinal CE-mediated O-nitrophenyl acetate hydrolysis by spectrophotometry

smiles.structure	prefix.operator	Ki, nM
O=S(=O)(Nc1ccc2c(c1)Cc1cc(NS(=O)(=O)c3cccc(Cl)c3)ccc1-2)c1cccc(Cl)c1	=	13.9
O=S(=O)(Nc1ccc(NS(=O)(=O)c2cccc(F)c2)cc1)c1cccc(F)c1	=	248
Cc1c(C)c(NS(=O)(=O)c2ccc(Br)cc2)c(C)c(C)c1NS(=O)(=O)c1ccc(Br)cc1	=	3240
Cc1ccc(S(=O)(=O)Nc2ccc(NS(=O)(=O)c3ccc(F)c(F)c3)cc2)cc1	=	194
O=S(=O)(Nc1ccc(NS(=O)(=O)c2cccc(Br)c2)cc1)c1cccc(Br)c1	=	67
O=S(=O)(Nc1ccc(NS(=O)(=O)c2c(F)cccc2F)cc1)c1c(F)cccc1F	=	5260
Cc1ccc(S(=O)(=O)Nc2ccc(NS(=O)(=O)c3cc(F)ccc3F)cc2)cc1	=	467
O=S(=O)(Nc1ccc2c(c1)Cc1cc(NS(=O)(=O)c3cc(F)c(F)c(F)c3)ccc1-2)c1cc(F)c(F)c(F)c1	=	18.6
O=S(=O)(Nc1ccc(NS(=O)(=O)c2ccc(Cl)cc2)cc1)c1ccc(F)cc1	=	200
O=S(=O)(Nc1ccc2c(c1)Cc1cc(NS(=O)(=O)c3ccc(Cl)cc3)ccc1-2)c1ccc(Cl)cc1	=	23.5
Cc1c(C)c(NS(=O)(=O)c2cccc(Br)c2)c(C)c(C)c1NS(=O)(=O)c1cccc(Br)c1	=	1570
O=S(=O)(Nc1ccc2c(c1)Cc1cc(NS(=O)(=O)c3ccccc3)ccc1-2)c1ccccc1	=	90.8
O=S(=O)(Nc1cc(Br)c(NS(=O)(=O)c2ccc(Cl)cc2)cc1Br)c1ccc(Cl)cc1	>	100000
O=S(=O)(Nc1c(F)c(F)c(NS(=O)(=O)c2ccc(Br)cc2)c(F)c1F)c1ccc(Br)cc1	=	23.4
Cc1ccc(C)c(S(=O)(=O)Nc2ccc(NS(=O)(=O)c3ccc(F)cc3)cc2)c1	=	240
O=S(=O)(Nc1ccc(Oc2ccccc2)cc1)c1ccc(Br)cc1	=	165
O=S(=O)(Nc1ccc(NS(=O)(=O)c2cc(Cl)ccc2Cl)cc1)c1cc(Cl)ccc1Cl	=	119
O=S(=O)(Nc1ccc(NS(=O)(=O)c2ccc(Br)cc2)cc1)c1ccc(Br)cc1	=	85.2
O=S(=O)(Nc1ccc2c(c1)Cc1cc(NS(=O)(=O)c3cccc(Br)c3)ccc1-2)c1cccc(Br)c1	=	21.2
Cc1ccc(S(=O)(=O)Nc2ccc(NS(=O)(=O)c3ccc(F)cc3)cc2)cc1	=	281
O=S(=O)(Nc1cc(Br)c(NS(=O)(=O)c2ccccc2)cc1Br)c1ccccc1	>	100000
O=C(O)c1ccc(S(=O)(=O)Nc2ccc(NS(=O)(=O)c3ccc(F)cc3)cc2)cc1	>	100000
Cc1c(C)c(NS(=O)(=O)c2ccc(Cl)cc2)c(C)c(C)c1NS(=O)(=O)c1ccc(Cl)cc1	=	2010
O=S(=O)(Nc1ccc(NS(=O)(=O)c2ccccc2)c(Cl)c1)c1ccccc1	=	696
O=S(=O)(Nc1ccc(NS(=O)(=O)c2cc(Cl)cc(Cl)c2)cc1)c1cc(Cl)cc(Cl)c1	=	385
O=S(=O)(Nc1ccc(NS(=O)(=O)c2ccc(F)c(F)c2)cc1)c1ccccc1	=	488
O=S(=O)(Nc1ccc(NS(=O)(=O)c2cc(F)cc(F)c2)cc1)c1cc(F)cc(F)c1	=	246
O=S(=O)(Nc1ccc(NS(=O)(=O)c2cc(Cl)c(Cl)cc2Cl)cc1)c1cc(Cl)c(Cl)cc1Cl	>	100000
O=S(=O)(Nc1ccc(NS(=O)(=O)c2ccc(Cl)c(Cl)c2)cc1)c1ccc(Cl)c(Cl)c1	=	91.5
O=S(=O)(Nc1c(F)c(F)c(NS(=O)(=O)c2ccc(F)cc2)c(F)c1F)c1ccc(F)cc1	=	314
O=S(=O)(Nc1ccc(NS(=O)(=O)c2ccc(F)cc2)cc1)c1ccc(F)cc1	=	355
Cc1c(C)c(NS(=O)(=O)c2ccc(Cl)c(Cl)c2)c(C)c(C)c1NS(=O)(=O)c1ccc(Cl)c(Cl)c1	=	344
CNC(=O)c1ccc(S(=O)(=O)Nc2ccc(NS(=O)(=O)c3ccc(F)cc3)cc2)cc1	>	100000
Cc1c(C)c(NS(=O)(=O)c2cc(Cl)cc(Cl)c2)c(C)c(C)c1NS(=O)(=O)c1cc(Cl)cc(Cl)c1	=	2600
O=S(=O)(Nc1ccc(NS(=O)(=O)c2cc(F)c(F)c(F)c2)cc1)c1cc(F)c(F)c(F)c1	=	210
CCOc1ccc(NS(=O)(=O)c2ccc(Cl)cc2)cc1	=	1310
